Reference source: a melting point compilation (Tetko et al.)

melting point for assorted compounds
Provide only the numeric value, understood in °C.

CC(C)=CCCC(C)C1CCC2C3CC=C4CC(O)CCC4(C)C3CCC12C (stereo not drawn) :: 122

Could you share which melting point value was measured for NC(Cc1cc(I)c(Oc2ccc(O)c(I)c2)c(I)c1)C(=O)O (stereo not drawn) ?
236

Also NS(=O)(=O)c1ccc(N2CCCCS2(=O)=O)cc1 ?
180

Also Cc1cc2cc3ccccc3cc2cc(C)c1=O ?
182

====

melting point for assorted compounds

C=Cc1ccc(OCc2ccccc2)c(OC)c1 :: 48 to 55 °C

Could you share which melting point value was measured for Nc1ccc(C(F)(F)F)cc1N ?
56 to 58 °C

Also FC(F)(F)c1n[nH]c(=S)[nH]1 ?
161 to 164 °C

Also O=Cc1ccccc1N1CCOCC1 ?
45 to 46 °C

====

melting point for assorted compounds

CC(=O)C1(O)CCC2(C)C(CC(=O)C3C4CCC(=O)C4(C)CCC32)C1 (centres undefined) :: 185 to 191 °C
O=[N+]([O-])c1ccc(C(Cl)C(Cl)c2ccc(C(Cl)C(Cl)c3ccc([N+](=O)[O-])cc3[N+](=O)[O-])cc2)c([N+](=O)[O-])c1 (centres undefined) :: 92 to 99 °C
Nc1ncccc1OCc1ccccc1 :: 94 to 98 °C
CC(=O)NCCc1ccccc1 :: 48 to 52 °C
CCOC(=O)[C@@H]1CC=CC[C@@H]1N (relative stereo) :: 99 to 103 °C

Could you share which melting point value was measured for O=C(O)c1cc2cccnc2nc1C(F)(F)F ?
309 to 310 °C

Also Cc1nc(-c2ccc(N)cc2)no1 ?
113 to 114 °C

Also CCCCCCCCc1ccc(/N=N/c2ccc(OC(=O)CC)cc2)cc1 ?
60 to 62 °C

Also Brc1ccc2c(c1)OCOC2 ?
49 to 51 °C

Also CCCc1ccc(NC(C)=O)cc1O ?
178 to 179 °C

Also BrCc1ccc(-c2ccccc2)cc1 ?
86 to 87 °C

Also CC(=O)Nc1ccc(C2=NNC(=O)CC2)cc1 ?
250 to 253 °C

Also O=CN(C=O)N(C=O)C=O ?
180 to 183 °C

Also CC(C)(C)OC(=O)NC(Cc1cccc2ccccc12)C(=O)O (centres undefined) ?
145 to 148 °C

====

quantity: melting point

In the examples that follow, each entry is paired with its recorded melting point.
O=C(O)C1Cc2ccccc2O1 (stereo unspecified) :: 117 to 118 °C
CC12CCC(/C(=C/N(Cl)c3ccccc3)C1=O)C2(C)C (stereo unspecified) :: 102 to 103 °C
O=C1C=CC(=O)[C@@H]2Cc3ccccc3C[C@H]12 :: 127 to 128 °C
Cc1nn(-c2ccccc2)nc1C(N)=O :: 175 to 177 °C
Nc1ccc(Oc2c(Cl)cccc2Cl)nc1 :: 120 to 122 °C

Could you share which melting point value was measured for Cc1c(C)c2c(c3c1CC3)CC2 ?
105 to 116 °C

Also CSc1ccc(C(=O)O)s1 ?
103 to 105 °C

Also C=C1C2CC(CC2NS(=O)(=O)c2ccc(C)cc2)C1(C)C (stereo unspecified) ?
110 to 114 °C

Also CC(C)(C)OC(=O)N1CCN(CCC(=O)O)CC1 ?
138 to 139 °C

Also O=Cc1cccn1-c1ccc(I)cc1 ?
98 to 100 °C

Also OC1CCN(c2nccc(C(F)(F)F)n2)CC1 ?
99 to 100 °C

Also O=Cc1cc2ccccc2n1S(=O)(=O)c1ccccc1 ?
111 to 112 °C

Also Cc1nc(-c2ccc(C=O)cc2)cs1 ?
101 to 102 °C

Also Cc1ccnc(Nc2nc3ccccc3[nH]2)c1 ?
279 to 281 °C

Also O=Cc1cc(Cl)c(O)c(Cl)c1 ?
154 to 156 °C

Also NC(=S)Cc1ccc(-c2csnn2)cc1 ?
169 to 171 °C

====

melting point for assorted compounds

In the examples that follow, each entry is paired with its recorded melting point.
CC(=O)c1cc(C)c(C)cc1O :: 69 to 73 °C
NNc1c(Cl)cc(Cl)cc1C(F)(F)F :: 40 to 43 °C
NNC(=O)c1cnn(-c2ccccc2)c1C(F)(F)F :: 153 to 155 °C
N#Cc1cccc(N2CCOCC2)n1 :: 133 to 135 °C
O=[N+]([O-])c1ccc2c(c1)OCCOCCOCCOCCOCCO2 :: 85 to 88 °C

Could you share which melting point value was measured for CC(C)(C)c1ccc(-c2noc(CCl)n2)cc1 ?
46 to 48 °C

====

quantity: melting point

In the examples that follow, each entry is paired with its recorded melting point.
ClC(Cl)N(C(Cl)Cl)C(Cl)Cl :: 170 to 173 °C
O=C(O)c1cccc(-c2ncccn2)c1 :: 180 to 182 °C

Now let's try a different one.
Could you share which melting point value was measured for Oc1c(F)c(F)c(O)c(F)c1F ?
172 to 174 °C

====

melting point for assorted molecules
Provide only the numeric value, understood in °C.

In the examples that follow, each entry is paired with its recorded melting point.
COC(=O)CC(O)(CC(=O)OC)C(=O)OC :: 79.3
CC(C)(C)c1ccc(CSc2cnn(C(C)(C)C)c(=O)c2Cl)cc1 :: 112
S=C(Nc1ccccc1)N1CC(c2ccccc2)CC1c1ccccc1 (centres undefined) :: 188
CCC(C)(c1ccc(O)cc1)c1ccc(O)cc1 :: 120
NC(=S)C(N)=S :: 170
COc1cc(C(=O)O)cc(OC(C)=O)c1OC :: 151
Cc1cc2ccccc2cc1COC(=O)C(F)(F)F :: 92
N#Cc1ccc(F)c(F)c1 :: 50
Clc1c(Cl)c(Cl)c2c(oc3ccccc32)c1Cl :: 169

Now let's try a different one.
Could you share which melting point value was measured for CCCCCCCCCCCC(=O)CCCC ?
37

====

We label by threshold. Values of melting point strictly beneath 100 °C are condition met. Values of 100 °C and up are condition not met.

Please state whether melting point is below 100 °C for O=Cc1c(F)cccc1Cl
condition met

Also COc1cc2c(cc1OC)C1CC(=O)C(CC(C)C)CN1CC2 (centres undefined) ?
condition not met

Also COC(=O)c1c(C(=O)OC)c(-c2ccccc2)c2c(Cl)nc(Cl)cc2c1Sc1ccccc1 ?
condition not met

Also COc1cc(CCNC(=O)CC(C)C)ccc1OCc1ccccc1 ?
condition not met

Also Nc1ccc(S(=O)(=O)c2ccc([N+](=O)[O-])cc2)cc1 ?
condition not met

Also CC1CC(C)C(=O)C(C(O)CC2CC(=O)NC(=O)C2)C1 (centres undefined) ?
condition not met

Also Nc1ccc(I)cn1 ?
condition not met

Also O=C(Nc1ccc(Br)cc1)c1cc(Br)cc(Br)c1O ?
condition not met

Also CCC(=O)C1(c2cccc(O)c2)CCN(C)CC1 ?
condition not met

Also CC1(C)SC2C(NC(=O)C3(N)CCCCC3)C(=O)N2C1C(=O)O (centres undefined) ?
condition not met

Also CSC(SC)=C(C#N)C(=O)NCc1ccccc1 ?
condition met

Also O=[N+]([O-])c1cc(Cl)ccc1Br ?
condition met

Also CCCC(=O)CCC ?
condition met

====

melting point for assorted compounds

In the examples that follow, each entry is paired with its recorded melting point.
O=C(O)c1nccc2ccccc12 :: 160 to 165 °C
CCc1c(C)nc(N)nc1Cl :: 213 to 214 °C
N#CC1(N2CCCCC2)CCN(Cc2ccccc2)CC1 :: 103 to 106 °C
O=C(O)Cc1ccc2c(c1)OCO2 :: 128 to 132 °C
Cc1ccc(C=Nc2n[nH]c(N=Cc3ccc(C)cc3)c2Cc2ccc(Cl)cc2)cc1 :: 248 to 250 °C

Could you share which melting point value was measured for CC1(C)OC(=O)C(c2ccccc2)C(=O)O1 ?
135 to 140 °C

Also Cc1ccc(O)c(C(=O)c2ccccc2)c1 ?
83 to 85 °C

====

melting point for assorted compounds

CC(=O)Oc1ccc2c(c1)c(OC(C)=O)c(-c1ccccc1)n2OC(C)=O :: 194 to 196 °C
O=[N+]([O-])c1ccc(C#Cc2ccc([N+](=O)[O-])cc2S(=O)(=O)Oc2ccccc2)c(S(=O)(=O)Oc2ccccc2)c1 :: 185 to 186 °C
CCOc1ccc(CC#N)cc1 :: 44 to 47 °C

Could you share which melting point value was measured for COC(=O)c1cc(Br)cc(C(=O)OC)c1 ?
89 to 91 °C

Also O=C1CC(=O)CC(c2ccco2)C1 ?
146 to 149 °C

Also Cc1nnc2sc(SCc3ccccc3)nn2c1=O ?
171 to 172 °C

Also Brc1ccc(Oc2ccccc2)cc1Br ?
< 20 °C

Also C[Si](C)(C1C=Cc2ccccc21)C1C=Cc2ccccc21 (stereo not drawn) ?
85 to 87 °C

Also O=C(CBr)Nc1ccccc1Cl ?
89 to 91 °C

Also CC(CCC(O)(c1ccccc1)c1ccccc1)C1CCC2C3C(O)CC4CC(O)CCC4(C)C3CC(O)C12C (stereo not drawn) ?
162 to 170 °C

Also NS(=O)(=O)c1ccc(Sc2ccc(Cl)cc2)s1 ?
133 to 136 °C

Also O=C(O)c1cccc(-n2ccnc2)c1 ?
194 to 199 °C

Also CC(/C=C/c1ccccc1)=C\C(C)=N\Nc1ccc([N+](=O)[O-])cc1[N+](=O)[O-] ?
232 to 234 °C

Also O=c1c2ccccc2[nH]c(=S)n1Cc1ccccc1 ?
256 to 257 °C

Also Nc1cccc(Cc2cccc(N)c2)c1 ?
81.5 °C

Also CCN1C(=O)C(=Cc2coc3ccc(Cl)cc3c2=O)SC1=S ?
231 to 233 °C

Also NNC(=O)c1ccccc1-c1ccccc1 ?
140 to 143 °C

Also O=C(O)c1cnc(O)nc1-c1ccncc1 ?
309 to 310 °C
